Collected viability, T/C values appear next to each entry.
- Tested on: NCI-H211 complex spheroid viability
- assay: Anticancer human tumor NCI-H211 cell line growth inhibition [LSD1];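 also: luminescent viability read after seven days of drug exposure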;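 as to viability, T/C: 100% = DMSO vehicle control viability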
- run_parameters: second compound 1 µM; first compound 0.03 µM; stronger effect = lower value
readout: viability, T/C

compound="O=C(C=Cc1cccc(S(=O)(=O)Nc2ccccc2)c1)NO + NC1CCC(NC2CC2c2ccccc2)CC1" target_or_system="NCI-H211 complex spheroid viability" readout="viability, T/C" result=3.31%
compound="COc1cc(C2c3cc4c(cc3C(OC3OC5COC(C)OC5C(O)C3O)C3COC(=O)C23)OCO4)cc(OC)c1O (stereo unspecified) + NC1CC1c1ccc(-c2cccc(O)c2)cc1" target_or_system="NCI-H211 complex spheroid viability" readout="viability, T/C" result=10.3%
compound="COc1cc(C2c3cc4c(cc3C(OC3OC5COC(C)OC5C(O)C3O)C3COC(=O)C23)OCO4)cc(OC)c1O (stereo unspecified) + NC1CCC(NC2CC2c2ccccc2)CC1" target_or_system="NCI-H211 complex spheroid viability" readout="viability, T/C" result=11.6%
compound="CCc1c2c(nc3ccc(O)cc13)-c1cc3c(c(=O)n1C2)COC(=O)[C@]3(O)CC + NC1CC1c1ccc(-c2cccc(O)c2)cc1" target_or_system="NCI-H211 complex spheroid viability" readout="viability, T/C" result=0.97%
compound="NS(=O)(=O)OCC1CC(n2ccc3c(NC4CCc5ccccc54)ncnc32)CC1O (stereo unspecified) + NC1CC1c1ccc(-c2cccc(O)c2)cc1" target_or_system="NCI-H211 complex spheroid viability" readout="viability, T/C" result=10.4%
compound="Nc1ccccc1NC(=O)c1ccc(CNC(=O)OCc2cccnc2)cc1 + NC1CCC(NC2CC2c2ccccc2)CC1" target_or_system="NCI-H211 complex spheroid viability" readout="viability, T/C" result=27.2%
compound="O=C(C=Cc1cccc(S(=O)(=O)Nc2ccccc2)c1)NO + NC1CC1c1ccc(-c2cccc(O)c2)cc1" target_or_system="NCI-H211 complex spheroid viability" readout="viability, T/C" result=8.11%
compound="NS(=O)(=O)OCC1CC(n2ccc3c(NC4CCc5ccccc54)ncnc32)CC1O (stereo unspecified) + NC1CCC(NC2CC2c2ccccc2)CC1" target_or_system="NCI-H211 complex spheroid viability" readout="viability, T/C" result=7.52%
compound="Nc1ccn(C2OC(CO)C(O)C2(F)F)c(=O)n1 (stereo unspecified) + NC1CC1c1ccc(-c2cccc(O)c2)cc1" target_or_system="NCI-H211 complex spheroid viability" readout="viability, T/C" result=3.58%
compound="Nc1ccn(C2OC(CO)C(O)C2(F)F)c(=O)n1 (stereo unspecified) + NC1CCC(NC2CC2c2ccccc2)CC1" target_or_system="NCI-H211 complex spheroid viability" readout="viability, T/C" result=2.01%
compound="Nc1ccccc1NC(=O)c1ccc(CNC(=O)OCc2cccnc2)cc1 + NC1CC1c1ccc(-c2cccc(O)c2)cc1" target_or_system="NCI-H211 complex spheroid viability" readout="viability, T/C" result=25.1%
compound="Nc1ncn(C2CC(O)C(CO)S2)c(=O)n1 (stereo unspecified) + NC1CCC(NC2CC2c2ccccc2)CC1" target_or_system="NCI-H211 complex spheroid viability" readout="viability, T/C" result=3.07%
compound="CCc1c2c(nc3ccc(O)cc13)-c1cc3c(c(=O)n1C2)COC(=O)[C@]3(O)CC + NC1CCC(NC2CC2c2ccccc2)CC1" target_or_system="NCI-H211 complex spheroid viability" readout="viability, T/C" result=0.73%
compound="CCN(c1cc(-c2ccc(CN3CCOCC3)cc2)cc(C(=O)NCc2c(C)cc(C)[nH]c2=O)c1C)C1CCOCC1 + NC1CC1c1ccc(-c2cccc(O)c2)cc1" target_or_system="NCI-H211 complex spheroid viability" readout="viability, T/C" result=48.5%
compound="Nc1ncn(C2CC(O)C(CO)S2)c(=O)n1 (stereo unspecified) + NC1CC1c1ccc(-c2cccc(O)c2)cc1" target_or_system="NCI-H211 complex spheroid viability" readout="viability, T/C" result=4.16%
compound="CCN(c1cc(-c2ccc(CN3CCOCC3)cc2)cc(C(=O)NCc2c(C)cc(C)[nH]c2=O)c1C)C1CCOCC1 + NC1CCC(NC2CC2c2ccccc2)CC1" target_or_system="NCI-H211 complex spheroid viability" readout="viability, T/C" result=63.8%

* * *

- System: NCI-H211 complex spheroid viability
- assay: Anticancer human tumor NCI-H211 cell line growth inhibition [LSD1];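 also: luminescent viability read after seven days of drug exposure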
- run_parameters: curve of first compound; second compound 1 µM
pIC50: −log10 of the molar value.
readout: pIC50

compound="CCc1c2c(nc3ccc(O)cc13)-c1cc3c(c(=O)n1C2)COC(=O)[C@]3(O)CC + NC1CCC(NC2CC2c2ccccc2)CC1" readout=pIC50 censoring_operator=> quantitative_readout=9.02
compound="NS(=O)(=O)OCC1CC(n2ccc3c(NC4CCc5ccccc54)ncnc32)CC1O (configuration not stated) + NC1CCC(NC2CC2c2ccccc2)CC1" readout=pIC50 censoring_operator=> quantitative_readout=8.02
compound="CC1(C)CCC(CN2CCN(c3ccc(C(=O)NS(=O)(=O)c4ccc(NCC5CCOCC5)c([N+](=O)[O-])c4)c(Oc4cnc5[nH]ccc5c4)c3)CC2)=C(c2ccc(Cl)cc2)C1 + NC1CCC(NC2CC2c2ccccc2)CC1" readout=pIC50 censoring_operator=< quantitative_readout=5.00
compound="Nc1ccccc1NC(=O)c1ccc(CNC(=O)OCc2cccnc2)cc1 + NC1CC1c1ccc(-c2cccc(O)c2)cc1" readout=pIC50 censoring_operator=> quantitative_readout=8.02
compound="CC(C)CC(NC(=O)C(Cc1ccccc1)NC(=O)c1cnccn1)B(O)O (configuration not stated) + NC1CC1c1ccc(-c2cccc(O)c2)cc1" readout=pIC50 censoring_operator== quantitative_readout=8.52
compound="Nc1ccccc1NC(=O)c1ccc(CNC(=O)OCc2cccnc2)cc1 + NC1CCC(NC2CC2c2ccccc2)CC1" readout=pIC50 censoring_operator== quantitative_readout=8.00
compound="COc1ccc([C@@H](O)c2cc(-c3ncnc4cc(N5CCOCC5)ccc34)c(F)cc2Cl)nn1 + NC1CCC(NC2CC2c2ccccc2)CC1" readout=pIC50 censoring_operator== quantitative_readout=5.46

* * *

Reported values of viability, T/C for individual entries
- Test system: NCI-H211 complex spheroid viability
- assay: Anticancer human tumor NCI-H211 cell line growth inhibition [LSD1];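 also: luminescent viability read after seven days of drug exposure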;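 as to viability, T/C: 100% = DMSO vehicle control viability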
- run_parameters: second compound 3.16 µM; first compound 0.000316 µM; stronger effect = lower value
readout: viability, T/C (%)

compound="CC[C@@]1(O)C(=O)OCc2c1cc1n(c2=O)Cc2cc3c(CN(C)C)c(O)ccc3nc2-1 + NC1CCC(NC2CC2c2ccccc2)CC1" readout="viability, T/C" quantitative_readout=49
compound="CC(C)CC(NC(=O)C(Cc1ccccc1)NC(=O)c1cnccn1)B(O)O (centres undefined) + NC1CCC(NC2CC2c2ccccc2)CC1" readout="viability, T/C" quantitative_readout=64.3
compound="CC(C)CC(NC(=O)CNC(=O)c1cc(Cl)ccc1Cl)B1OC(=O)CC(CC(=O)O)(C(=O)O)O1 (centres undefined) + NC1CC1c1ccc(-c2cccc(O)c2)cc1" readout="viability, T/C" quantitative_readout=75.3
compound="Cn1ncnc1C1c2n[nH]c(=O)c3cc(F)cc(c23)NC1c1ccc(F)cc1 (centres undefined) + NC1CC1c1ccc(-c2cccc(O)c2)cc1" readout="viability, T/C" quantitative_readout=71.6

* * *

- Test system: NCI-H211 complex spheroid viability
- assay: Anticancer human tumor NCI-H211 cell line growth inhibition [LSD1];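 also: luminescent viability read after seven days of drug exposure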;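 as to viability, T/C: 100% = DMSO vehicle control viability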
- run_parameters: second compound 0.1 µM; first compound 0.0316 µM; stronger effect = lower value
// reported viability, T/C for each item listed
readout: viability, T/C (%)

molecule="CC[C@@]1(O)C(=O)OCc2c1cc1n(c2=O)Cc2cc3c(CN(C)C)c(O)ccc3nc2-1 + NC1CCC(NC2CC2c2ccccc2)CC1" unit_abbrev=% quantitative_readout=1.98
molecule="Cn1ncnc1C1c2n[nH]c(=O)c3cc(F)cc(c23)NC1c1ccc(F)cc1 (stereo not given) + NC1CC1c1ccc(-c2cccc(O)c2)cc1" unit_abbrev=% quantitative_readout=5.16
molecule="CC1COCCN1c1cc(-c2ccnn2C)c2ccnc(-c3ccn[nH]3)c2n1 (stereo not given) + NC1CC1c1ccc(-c2cccc(O)c2)cc1" unit_abbrev=% quantitative_readout=6.31
molecule="CC[C@@]1(O)C(=O)OCc2c1cc1n(c2=O)Cc2cc3c(CN(C)C)c(O)ccc3nc2-1 + NC1CC1c1ccc(-c2cccc(O)c2)cc1" unit_abbrev=% quantitative_readout=3.81
molecule="Cn1ncnc1C1c2n[nH]c(=O)c3cc(F)cc(c23)NC1c1ccc(F)cc1 (stereo not given) + NC1CCC(NC2CC2c2ccccc2)CC1" unit_abbrev=% quantitative_readout=1.93
molecule="COc1cc(Nc2ncc3c(n2)-c2ccc(Cl)cc2C(c2c(F)cccc2OC)=NC3)ccc1C(=O)O + NC1CC1c1ccc(-c2cccc(O)c2)cc1" unit_abbrev=% quantitative_readout=4.04
molecule="CC(C)c1c(-c2ccccc2)nc2c(C#N)c[nH]n2c1=O + NC1CCC(NC2CC2c2ccccc2)CC1" unit_abbrev=% quantitative_readout=74.2
molecule="CC1(C)CCC(CN2CCN(c3ccc(C(=O)NS(=O)(=O)c4ccc(NCC5CCOCC5)c([N+](=O)[O-])c4)c(Oc4cnc5[nH]ccc5c4)c3)CC2)=C(c2ccc(Cl)cc2)C1 + NC1CCC(NC2CC2c2ccccc2)CC1" unit_abbrev=% quantitative_readout=55.3
molecule="COc1ccc([C@@H](O)c2cc(-c3ncnc4cc(N5CCOCC5)ccc34)c(F)cc2Cl)nn1 + NC1CC1c1ccc(-c2cccc(O)c2)cc1" unit_abbrev=% quantitative_readout=62
molecule="O=C(c1cc(Cc2n[nH]c(=O)c3ccccc23)ccc1F)N1CCN(C(=O)C2CC2)CC1 + NC1CCC(NC2CC2c2ccccc2)CC1" unit_abbrev=% quantitative_readout=41.8
molecule="CC1COCCN1c1cc(C2(S(C)(=N)=O)CC2)nc(-c2ccnc3[nH]ccc23)n1 (stereo not given) + NC1CCC(NC2CC2c2ccccc2)CC1" unit_abbrev=% quantitative_readout=67.7
molecule="COc1cc(Nc2ncc3c(n2)-c2ccc(Cl)cc2C(c2c(F)cccc2OC)=NC3)ccc1C(=O)O + NC1CCC(NC2CC2c2ccccc2)CC1" unit_abbrev=% quantitative_readout=2.59
molecule="CC1COCCN1c1cc(C2(S(C)(=N)=O)CC2)nc(-c2ccnc3[nH]ccc23)n1 (stereo not given) + NC1CC1c1ccc(-c2cccc(O)c2)cc1" unit_abbrev=% quantitative_readout=89.3
molecule="O=C(c1cc(Cc2n[nH]c(=O)c3ccccc23)ccc1F)N1CCN(C(=O)C2CC2)CC1 + NC1CC1c1ccc(-c2cccc(O)c2)cc1" unit_abbrev=% quantitative_readout=47.4
molecule="CC1COCCN1c1cc(-c2ccnn2C)c2ccnc(-c3ccn[nH]3)c2n1 (stereo not given) + NC1CCC(NC2CC2c2ccccc2)CC1" unit_abbrev=% quantitative_readout=3.03
molecule="COc1ccc([C@@H](O)c2cc(-c3ncnc4cc(N5CCOCC5)ccc34)c(F)cc2Cl)nn1 + NC1CCC(NC2CC2c2ccccc2)CC1" unit_abbrev=% quantitative_readout=72.7
molecule="Nc1ncn(C2CC(O)C(CO)O2)c(=O)n1 (stereo not given) + NC1CC1c1ccc(-c2cccc(O)c2)cc1" unit_abbrev=% quantitative_readout=5.65
molecule="CC(C)c1c(-c2ccccc2)nc2c(C#N)c[nH]n2c1=O + NC1CC1c1ccc(-c2cccc(O)c2)cc1" unit_abbrev=% quantitative_readout=86.7
molecule="CC(C)CC(NC(=O)C(Cc1ccccc1)NC(=O)c1cnccn1)B(O)O (stereo not given) + NC1CC1c1ccc(-c2cccc(O)c2)cc1" unit_abbrev=% quantitative_readout=0.06
molecule="CC(C)CC(NC(=O)C(Cc1ccccc1)NC(=O)c1cnccn1)B(O)O (stereo not given) + NC1CCC(NC2CC2c2ccccc2)CC1" unit_abbrev=% quantitative_readout=3.13
